- assay_info: T. cruzi intracellular proliferation inhibitors, primary screen, cell-based, beta-gal Tulahuen parasites, NIH3T3 host, luminescence (AID 624255)
- cond: T. cruzi beta-gal in NIH3T3, GalScreen luminescence, 90 h; at 8.34 µM; hits give high values
About 4,600 (6%) of roughly 77,000 compounds were called active. Another 1% or so got no clear call; they are omitted. The list comes from a sample in which actives are over-represented; it also holds close analogues and randomly drawn compounds.

smiles_record	inhibition (%)
C[C@@H]1CN([C@@H](C)CO)C(=O)Cc2cc(NS(=O)(=O)c3ccc(Cl)cc3)ccc2O[C@H]1CN(C)Cc1ccc(C(F)(F)F)cc1	-1.87
CCCNC(=O)[C@H]1[C@H](CO)[C@H]2Cn3c(ccc(C4=CCCC4)c3=O)[C@H]2N1C(=O)CC	6.67
COc1ccc(S(=O)(=O)Nc2ccc3c(c2)CC(=O)N([C@H](C)CO)C[C@H](C)[C@H](CN(C)Cc2ccc(C(F)(F)F)cc2)O3)cc1	75
COc1ccc(CN(C)C[C@H]2Oc3ccc(NS(=O)(=O)c4ccc(C)cc4)cc3C(=O)N([C@@H](C)CO)C[C@H]2C)cc1	37.9
Cc1ccc(S(=O)(=O)Nc2ccc3c(c2)C(=O)N([C@@H](C)CO)C[C@@H](C)[C@H](CN(C)Cc2ccc(C(F)(F)F)cc2)O3)cc1	42.1
COC(=O)C[C@H]1C[C@@H]2c3cc(NC(=O)Nc4ccccc4)ccc3O[C@@H]2[C@@H](CO)O1	57.1
O=C(Nc1ccc(F)cc1)N[C@@H]1CC[C@H](CC(=O)N2CCCCC2)O[C@H]1CO	-3.48

---

- assay_info: T. cruzi intracellular proliferation inhibitors, primary screen, cell-based, beta-gal Tulahuen parasites, NIH3T3 host, luminescence (AID 624255)
- cond: T. cruzi beta-gal in NIH3T3, GalScreen luminescence, 90 h; at 8.34 µM; hits give high values
The whole screen tested about 77,000 compounds, of which about 4,600 (6%) were called active. Roughly 1% stayed inconclusive and do not appear here. For the sample, actives were picked, then their nearest neighbours and some compounds at random.
Binary call on inhibition: 1 from 50% upward, -1 beneath that.

smiles_record	label_value
C[C@@H]1CCCCO[C@H](CN(C)C(=O)Nc2ccc(C(F)(F)F)cc2)[C@H](C)CN([C@H](C)CO)C(=O)c2cc(NC(=O)Nc3ccc(C(F)(F)F)cc3)ccc2O1	1
COc1ccc(CN(C)C[C@H]2OCCCC[C@H](C)Oc3ccc(NC(=O)Nc4ccc5c(c4)OCO5)cc3C(=O)N([C@H](C)CO)C[C@@H]2C)cc1	1
C[C@@H]1CCCCO[C@@H](CN(C)Cc2ccc3c(c2)OCO3)[C@@H](C)CN([C@@H](C)CO)C(=O)c2cc(NC(=O)Nc3ccccc3)ccc2O1	1
C[C@@H]1CN([C@H](C)CO)S(=O)(=O)c2ccc(C#CC3CCCC3)cc2O[C@@H]1CN(C)Cc1cccnc1	1
C[C@@H]1CN([C@H](C)CO)S(=O)(=O)c2ccc(C#CC3CC3)cc2O[C@H]1CN(C)Cc1ccccc1F	1
COc1ccc(NC(=O)N(C)C[C@H]2OCCCC[C@@H](C)Oc3ccc(NC(=O)Nc4ccc5c(c4)OCO5)cc3C(=O)N([C@H](C)CO)C[C@@H]2C)cc1	-1
C[C@H](CO)N1C[C@H](C)[C@H](CN(C)S(C)(=O)=O)Oc2ncc(C3=CCCCC3)cc2C1=O	-1
CO[C@H]1CN(C)C(=O)c2ccc(NC(=O)C3CC3)cc2OC[C@@H](C)N(C(=O)CN2CCOCC2)C[C@H]1C	-1
C[C@H](O)C#Cc1ccc([C@@H]2[C@@H](CO)N3CCCCN(C(=O)c4ccncc4)C[C@@H]23)cc1	-1
CC(C)(O)C#Cc1ccc([C@@H]2[C@H](CO)N3CCCCN(C(=O)c4cccc(F)c4)C[C@@H]23)cc1	1
Cc1ccc(S(=O)(=O)Nc2ccc3c(c2)C(=O)N([C@H](C)CO)C[C@@H](C)[C@H](CN(C)S(=O)(=O)c2ccc(C)cc2)OCCCC[C@@H](C)O3)cc1	1
C[C@@H]1CN([C@@H](C)CO)C(=O)c2cc(NC(=O)Nc3ccc4c(c3)OCO4)ccc2O[C@@H](C)CCCCO[C@@H]1CN(C)Cc1ccccc1	-1
COc1ccc(S(=O)(=O)N(C)C[C@@H]2OCCCC[C@@H](C)Oc3ccc(NS(=O)(=O)c4ccccc4)cc3C(=O)N([C@@H](C)CO)C[C@H]2C)cc1	1
C[C@@H]1CCCCO[C@H](CN(C)S(=O)(=O)c2ccccc2)[C@@H](C)CN([C@@H](C)CO)C(=O)c2cc(NS(=O)(=O)c3ccccc3)ccc2O1	1
CO[C@@H]1CN(C)C(=O)c2cc(NC(=O)NC(C)C)ccc2OC[C@@H](C)N(CC2CC2)C[C@@H]1C	-1
O=C(c1cccc(F)c1)N1CCCCN2[C@@H](CO)[C@H](c3ccc(-c4cncnc4)cc3)[C@@H]2C1	1
Cc1ccc(S(=O)(=O)N(C)C[C@@H]2OCCCC[C@@H](C)Oc3ccc(NS(=O)(=O)c4ccc(F)cc4)cc3C(=O)N([C@H](C)CO)C[C@H]2C)cc1	1
C[C@@H]1CCCCO[C@@H](CN(C)S(C)(=O)=O)[C@H](C)CN([C@@H](C)CO)C(=O)c2cc(NS(=O)(=O)c3ccc(F)cc3)ccc2O1	-1
COc1ccccc1-c1ccc([C@@H]2[C@@H](CO)N3CCCCN(C(=O)c4ccncc4)C[C@@H]23)cc1	1
COc1ccccc1-c1ccc2c(c1)[C@H]1[C@H](CCN1S(=O)(=O)c1ccccc1)[C@@H](CO)N2	1
C[C@@H]1CN([C@H](C)CO)C(=O)c2cc(NC(=O)Nc3ccc4c(c3)OCO4)ccc2O[C@@H](C)CCCCO[C@@H]1CN(C)Cc1ccc2c(c1)OCO2	1
COc1ccc(C#Cc2ccc([C@@H]3[C@@H](CO)N4CCCCN(C(=O)c5ccncc5)C[C@@H]34)cc2)cc1	1
CC(C)NC(=O)N(C)C[C@H]1OCCCC[C@H](C)Oc2ccc(NC(=O)Nc3ccc(C(F)(F)F)cc3)cc2C(=O)N([C@H](C)CO)C[C@@H]1C	-1
CCCNC(=O)Nc1ccc2c(c1)C(=O)N(C)[C@H]1CC[C@H](CC(=O)NC3CCC3)O[C@H]1CO2	1
